Biological target: Phosphodiesterase 3 (Homo sapiens, UniProt Q14432+Q13370)
Assay: Inhibition of human platelet PDE by inhibiting cyclic Adenosine monophosphate (cAMP) hydrolysis
Examples of compounds with documented IC50 follow.
Numbers only; they are read as nM.

| CPD_SMILES | IC50 [nM] |
| --- | --- |
| CC(C)OC(=O)CCCOc1ccc2[nH]c3nc(O)nc-3cc2c1 | 300 |
| Cn1c(O)nc2nc3ccc(OCCCS(=O)(=O)c4ccccc4)cc3cc21 | 300 |
| O=C(O)CCCCc1ccc2[nH]c3nc(O)nc-3cc2c1 | 20 |
| Oc1nc2cc3cc(OCCCc4nnn[nH]4)ccc3[nH]c-2n1 | 3 |

Ask: Look up IC50: CCOC(=O)CCCOc1ccc2c(c1)CN1CC(=O)NC1=N2
Result: 70

Ask: Look up IC50: Oc1nc2cc3cc(OCCCCc4nnn[nH]4)ccc3[nH]c-2n1
Result: 10
